I'd be grateful if you could share measured IC50 for these entries.
Biological target: DRB1*13:02 (Homo sapiens, UniProt P01903+P01911, A100E/A169T/K41T/L162R/M171V/P40S/Q125H/Q178H/Q39Y/Q99D/R42S/S66N/T262R/V115G/W38E/Y61H)
Experiment: biochemical
Where a SMILES comes first, the peptide text is derived from it.
The reply should be a number in µM, with the unit left off.

GET /value?item= CSCC[C@H](NC(=O)[C@H](CCCCN)NC(=O)[C@H](CO)NC(=O)[C@H](CCC(=O)O)NC(=O)[C@H](CC(C)C)NC(=O)[C@H](CCC(N)=O)NC(=O)[C@H](CC(N)=O)NC(=O)[C@H](CC(C)C)NC(=O)[C@H](CCCNC(=N)N)NC(=O)[C@H](CC(=O)O)NC(=O)[C@H](CC(C)C)NC(=O)[C@H](CC(C)C)NC(=O)[C@H](CC(C)C)NC(=O)[C@@H](N)CC(C)C)C(=O)N[C@@H](CO)C(=O)O [Ncl_45] (H-LLLLDRLNQLESKMS-OH) &field=IC50 returns 0.673

IC50 measured on CC(C)C[C@H](NC(=O)[C@H](CC(N)=O)NC(=O)[C@H](CCCCN)NC(=O)[C@@H](NC(=O)[C@H](CCCNC(=N)N)NC(=O)[C@H](CO)NC(=O)[C@H](Cc1ccc(O)cc1)NC(=O)[C@@H](NC(=O)[C@H](Cc1ccc(O)cc1)NC(=O)[C@H](Cc1ccccc1)NC(=O)[C@H](CO)NC(=O)[C@@H]1CCCN1C(=O)[C@H](CCCCN)NC(=O)[C@@H](NC(=O)[C@@H](N)CC(C)C)C(C)C)C(C)C)C(C)C)C(=O)O [Env_11] (H-LVKPSFYVYSRVKNL-OH) = 7.25

---

Biological target: HLA-DRB1*11:01 (Homo sapiens, UniProt P01903+P01911, A100R/A169T/A87E/I96F/K41T/L162R/M171V/P40S/Q125H/Q178H/Q39Y/Q99D/R42S/S66Y/T262R/V115G/W38E)
Sequence (P01903 26-254 limits assumed, other chains not shown): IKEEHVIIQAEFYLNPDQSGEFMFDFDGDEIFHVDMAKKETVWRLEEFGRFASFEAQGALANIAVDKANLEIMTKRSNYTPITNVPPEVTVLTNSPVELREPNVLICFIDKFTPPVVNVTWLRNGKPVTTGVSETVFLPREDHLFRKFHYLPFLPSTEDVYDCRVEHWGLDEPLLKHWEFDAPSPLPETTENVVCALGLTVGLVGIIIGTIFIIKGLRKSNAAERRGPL
Experiment: biochemical
Where a SMILES comes first, the peptide text is derived from it.
Reported Metric: IC50 (nM)
Value expressed in nM; do not type the unit.

Form: compound = CC[C@H](C)[C@H](NC(=O)[C@H](Cc1c[nH]cn1)NC(=O)[C@H](CCCCN)NC(=O)[C@H](CC(N)=O)NC(=O)[C@H](CC(C)C)NC(=O)[C@H](CC(C)C)NC(=O)[C@@H](NC(=O)[C@@H](NC(=O)[C@H](CCC(N)=O)NC(=O)[C@H](CC(=O)O)NC(=O)[C@H](CCCCN)NC(=O)[C@@H](N)Cc1ccccc1)C(C)C)[C@@H](C)CC)C(=O)N[C@@H](CC(=O)O)C(=O)N[C@@H](C)C(=O)N[C@@H](Cc1ccc(O)cc1)C(=O)O [Ncl_70] (H-FKDQVILLNKHIDAY-OH) ; IC50 = 96

---

Target: DRB1*04:05 (Homo sapiens, UniProt P01903+P01911, A100R/A169T/D86S/F76Y/I96L/K127E/L162R/M171V/N62H/P40V/Q125Y/R42H/S133A/S149N/S66Y/V115G/V209L/W38E)
Assay: biochemical
Where a SMILES comes first, the peptide text is derived from it.
Reported Metric: IC50 (µM)
# output: bare number, implied unit µM

# IC50 (compound: CC[C@H](C)[C@H](NC(=O)[C@H](CCC(N)=O)NC(=O)[C@H](CC(=O)O)NC(=O)[C@@H](N)CC(=O)O)C(=O)NCC(=O)N[C@@H](Cc1ccc(O)cc1)C(=O)N[C@@H](Cc1ccc(O)cc1)C(=O)N[C@@H](CCCNC(=N)N)C(=O)N[C@@H](CCCNC(=N)N)C(=O)N[C@@H](C)C(=O)N[C@H](C(=O)N[C@@H](CCCNC(=N)N)C(=O)N[C@@H](CCCNC(=N)N)C(=O)N[C@H](C(=O)N[C@@H](CCCNC(=N)N)C(=O)O)[C@@H](C)CC)[C@@H](C)O [Ncl_P17] (H-DDQIGYYRRATRRIR-OH) ) is 9.12

---

Target: DRB1*04:05 (Homo sapiens, UniProt P01903+P01911, A100R/A169T/D86S/F76Y/I96L/K127E/L162R/M171V/N62H/P40V/Q125Y/R42H/S133A/S149N/S66Y/V115G/V209L/W38E)
Assay: biochemical
Assay type: binding
Where a SMILES comes first, the peptide text is derived from it.
So I've got a bunch of compounds here, and I need their pIC50 values.
Please express pIC50 as -log10 of the molar concentration.

So, CC(C)C[C@H](NC(=O)[C@H](CCC(N)=O)NC(=O)[C@H](CC(N)=O)NC(=O)[C@H](CC(C)C)NC(=O)[C@H](CCCNC(=N)N)NC(=O)[C@H](CC(=O)O)NC(=O)[C@H](CC(C)C)NC(=O)[C@H](CC(C)C)NC(=O)[C@H](CC(C)C)NC(=O)[C@H](CC(C)C)NC(=O)[C@H](C)NC(=O)[C@H](CC(C)C)NC(=O)[C@H](C)NC(=O)[C@H](C)NC(=O)[C@@H](N)CC(=O)O)C(=O)O [Ncl_44] (H-DAALALLLLDRLNQL-OH) ? Its pIC50 was 6.08

// pIC50 value for CC[C@H](C)[C@H](NC(=O)[C@H](CCC(=O)O)NC(=O)[C@@H](N)CCCCN)C(=O)N[C@H](C(=O)N[C@H](C(=O)N[C@@H](C)C(=O)N[C@H](C(=O)N[C@@H](CO)C(=O)N[C@@H](CCCNC(=N)N)C(=O)N[C@H](C(=O)N[C@@H](CC(C)C)C(=O)N[C@@H](CO)C(=O)N[C@@H](Cc1ccc(O)cc1)C(=O)N[C@@H](Cc1ccc(O)cc1)C(=O)N[C@@H](CCCCN)C(=O)O)[C@@H](C)O)[C@@H](C)O)C(C)C)[C@@H](C)O [Mem_34] (H-KEITVATSRTLSYYK-OH) : 5.41

The compound CC(C)C[C@H](NC(=O)[C@H](Cc1ccc(O)cc1)NC(=O)[C@H](Cc1ccc(O)cc1)NC(=O)[C@H](Cc1ccccc1)NC(=O)[C@H](Cc1ccc(O)cc1)NC(=O)[C@H](Cc1c[nH]c2ccccc12)NC(=O)[C@H](CCCNC(=N)N)NC(=O)[C@@H]1CCCN1)C(=O)NCC(=O)N[C@H](C(=O)NCC(=O)N1CCC[C@H]1C(=O)N[C@@H](CCC(=O)O)C(=O)N[C@@H](C)C(=O)NCC(=O)O)[C@@H](C)O [Ncl_22] (H-PRWYFYYLGTGPEAG-OH) showed pIC50 equal to 7.74

CC(C)C[C@H](NC(=O)[C@H](CC(N)=O)NC(=O)[C@H](CCCCN)NC(=O)[C@@H](NC(=O)[C@H](CCCNC(=N)N)NC(=O)[C@H](CO)NC(=O)[C@H](Cc1ccc(O)cc1)NC(=O)[C@@H](NC(=O)[C@H](Cc1ccc(O)cc1)NC(=O)[C@H](Cc1ccccc1)NC(=O)[C@H](CO)NC(=O)[C@@H]1CCCN1C(=O)[C@H](CCCCN)NC(=O)[C@@H](NC(=O)[C@@H](N)CC(C)C)C(C)C)C(C)C)C(C)C)C(=O)O [Env_11] (H-LVKPSFYVYSRVKNL-OH) has a reported pIC50 of 6.33

Given item CC[C@H](C)[C@H](NC(=O)CNC(=O)[C@H](CC(=O)O)NC(=O)[C@H](CCCCN)NC(=O)[C@H](CC(N)=O)NC(=O)[C@H](C)NC(=O)CNC(=O)[C@H](Cc1ccc(O)cc1)NC(=O)[C@@H]1CCCN1C(=O)[C@@H](N)CC(C)C)C(=O)N[C@H](C(=O)N[C@@H](Cc1c[nH]c2ccccc12)C(=O)N[C@H](C(=O)N[C@@H](C)C(=O)N[C@H](C(=O)O)[C@@H](C)O)C(C)C)[C@@H](C)CC [Ncl_25] (H-LPYGANKDGIIWVAT-OH) , the value recorded as its pIC50 is 5.12

---

Biological target: DPA1*01:03 DPB1*04:01 (Homo sapiens, UniProt P04440+P20036)
Sequence (P20036 29-260): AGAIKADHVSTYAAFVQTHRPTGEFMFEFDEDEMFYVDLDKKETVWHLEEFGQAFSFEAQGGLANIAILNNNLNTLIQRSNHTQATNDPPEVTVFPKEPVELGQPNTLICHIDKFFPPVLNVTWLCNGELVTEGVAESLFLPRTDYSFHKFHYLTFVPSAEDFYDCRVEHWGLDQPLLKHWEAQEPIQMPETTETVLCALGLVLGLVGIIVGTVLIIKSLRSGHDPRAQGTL
Sequence (P04440 30-258): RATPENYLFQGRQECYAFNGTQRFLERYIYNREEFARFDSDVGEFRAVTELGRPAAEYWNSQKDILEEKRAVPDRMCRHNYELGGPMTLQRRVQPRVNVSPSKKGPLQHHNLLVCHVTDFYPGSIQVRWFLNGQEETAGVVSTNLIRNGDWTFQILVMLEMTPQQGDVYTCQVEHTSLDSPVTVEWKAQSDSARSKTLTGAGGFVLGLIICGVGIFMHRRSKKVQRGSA
Test: biochemical
Where a SMILES comes first, the peptide text is derived from it.
Record form. Attribute: pIC50. Fill in for each entry.
Worth noting: pIC50 values are minus log10 of concentrations stated in mol/L.

Field pIC50 (entry CC[C@H](C)[C@H](NC(=O)[C@H](CCC(=O)O)NC(=O)[C@@H](N)CCCCN)C(=O)N[C@H](C(=O)N[C@H](C(=O)N[C@@H](C)C(=O)N[C@H](C(=O)N[C@@H](CO)C(=O)N[C@@H](CCCNC(=N)N)C(=O)N[C@H](C(=O)N[C@@H](CC(C)C)C(=O)N[C@@H](CO)C(=O)N[C@@H](Cc1ccc(O)cc1)C(=O)N[C@@H](Cc1ccc(O)cc1)C(=O)N[C@@H](CCCCN)C(=O)O)[C@@H](C)O)[C@@H](C)O)C(C)C)[C@@H](C)O [Mem_34] (H-KEITVATSRTLSYYK-OH) ) reads 5.48

Measured pIC50, CSCC[C@H](NC(=O)[C@H](CCCCN)NC(=O)[C@H](CO)NC(=O)[C@H](CCC(=O)O)NC(=O)[C@H](CC(C)C)NC(=O)[C@H](CCC(N)=O)NC(=O)[C@H](CC(N)=O)NC(=O)[C@H](CC(C)C)NC(=O)[C@H](CCCNC(=N)N)NC(=O)[C@H](CC(=O)O)NC(=O)[C@H](CC(C)C)NC(=O)[C@H](CC(C)C)NC(=O)[C@H](CC(C)C)NC(=O)[C@@H](N)CC(C)C)C(=O)N[C@@H](CO)C(=O)O [Ncl_45] (H-LLLLDRLNQLESKMS-OH) : 6.15

Form: molecule = CC[C@H](C)[C@H](NC(=O)[C@H](Cc1c[nH]cn1)NC(=O)[C@H](CCCCN)NC(=O)[C@H](CC(N)=O)NC(=O)[C@H](CC(C)C)NC(=O)[C@H](CC(C)C)NC(=O)[C@@H](NC(=O)[C@@H](NC(=O)[C@H](CCC(N)=O)NC(=O)[C@H](CC(=O)O)NC(=O)[C@H](CCCCN)NC(=O)[C@@H](N)Cc1ccccc1)C(C)C)[C@@H](C)CC)C(=O)N[C@@H](CC(=O)O)C(=O)N[C@@H](C)C(=O)N[C@@H](Cc1ccc(O)cc1)C(=O)O [Ncl_70] (H-FKDQVILLNKHIDAY-OH) ; pIC50 = 6.10
